Attribute: growth
test system: NCI/ADR-RES ovarian; assay: NCI-60 one-dose screen, 48 h (100 = growth as untreated, 0 = no growth, -100 = all killed); conditions: 10 µM unless noted
This is part of a sample that, as a whole, favours compounds with a hit. Of some 83,000 tested, about 20% had one in any assay. The source made the active and inactive calls. Rule for the calls: active = growth percent below 10; inactive = the rest.

Reference set (5 entries):
Cc1ccc(CNc2ccc(Cl)cc2NCc2ccc(C)c(O)c2)cc1O = 15.4% (inactive)
COc1cc(-c2nc3cc(Cl)c(Cl)cc3[nH]2)ccc1OCC(=O)N=Nc1c(O)[nH]c2ccc([N+](=O)[O-])cc12 = 109% (inactive)
Oc1c(Cl)cc(Cl)cc1/C=N/Nc1nnc(N/N=C/c2cc(Cl)cc(Cl)c2O)c2ccccc12 = 1.78% (active)
N#Cc1c(NC(=O)c2ccccc2)sc2c1CCC(=O)C2 = 5.57% (active)
CC(C)N1CN2C(=S)NC3C2N(C1)C(=S)N3C (centres undefined) = 106% (inactive)

Prompt: // lookup growth | system=NCI/ADR-RES ovarian | key= COC(=O)[C@H]1CCCN1C[C@@H](O)CN1C(=O)/C(=C\c2cc(OC)c(OC)c(OC)c2)c2ccccc21
Completion: 102% (inactive)

Prompt: And what about the compound CNc1nc(S(=O)c2ccc(C#N)cc2)nc2ccccc12 (centres undefined) ?
Completion: 97.8% (inactive)

Prompt: And what about the compound CCCCN1C(=O)/C(=c2\sc3n(c2=O)C2C(NN=3)N(CC)C(=O)N2CC)c2ccccc21 (centres undefined) ?
Completion: -9.17% (active)

Prompt: And what about the compound COc1ccc(NC(=O)c2sc3nc(C)c(C(=O)/C=C/c4cccc(OC)c4)cc3c2N)cc1 ?
Completion: 19.5% (inactive)

Prompt: And what about the compound COc1ccc2c(c1)c(-c1noc(C(=O)c3cn(C)c4ccc(Br)cc34)n1)cn2C ?
Completion: 102% (inactive)

Prompt: And what about the compound COc1ccc(-c2cc(-c3ccc(Cl)cc3)c(C#N)c(=O)n2CCCCC(=O)Nc2ccccc2N)cc1 ?
Completion: 37.3% (inactive)

Prompt: And what about the compound CC1(C)CC2=C3C=C[C@@H]4[C@@]5(C)CCC(=O)C(C)(C)[C@@H]5CC[C@@]4(C)[C@]3(C)CC[C@@]2(C(=O)O)CC1=O ?
Completion: 93.5% (inactive)

Prompt: And what about the compound Clc1ccc2c(c1)N(c1ncnc3ccc(-c4cnc5[nH]ncc5c4)cc13)CC2 ?
Completion: 40.4% (inactive)

Prompt: And what about the compound Cc1ccccc1/C=C1\CN(C(=O)OC(C)(C)C)C/C(=C\c2ccccc2C)C1=O ?
Completion: 15.7% (inactive)

Prompt: And what about the compound COc1ccc(N2CCC(=O)NC2=S)cc1 ?
Completion: 98% (inactive)
